Here the recorded IC50 is given for each entry.
# System: PC-3
# PROCEDURE_DETAILS: Antiproliferative activtiy against human PC3 cells assessed as growth inhibition after 48 hrs by MTT assay
# Format: functional, cell-based
# PARTICULARS: PC-3, 48 h
Please reply with the bare figure in µM and do not write the unit itself.

Below, 8 molecules whose answers are already recorded.
COMPOUND_SMILES: CCO[C@H]1C=C[C@H]2C/C=C\C[C@H](c3ccc(OC)cc3)OC(=O)C[C@@H]1O2
TGT: PC-3
VALUE_UNIT: µM
IC50: 56
--
COMPOUND_SMILES: CCO[C@H]1C=C[C@H]2C/C=C\C[C@H](c3ccc(Cl)cc3)OC(=O)C[C@@H]1O2
TGT: PC-3
VALUE_UNIT: µM
IC50: 9.16
--
COMPOUND_SMILES: O=C1C[C@@H]2O[C@@H](C=C[C@@H]2O)C/C=C\C[C@H](c2ccc3ccccc3c2)O1
TGT: PC-3
VALUE_UNIT: µM
IC50: 21.5
--
COMPOUND_SMILES: CO[C@H]1C=C[C@H]2C/C=C\C[C@H](c3ccc(-c4ccccc4C(F)(F)F)cc3)OC(=O)C[C@@H]1O2
TGT: PC-3
VALUE_UNIT: µM
IC50: 7.36
--
COMPOUND_SMILES: O=C1C[C@@H]2O[C@@H](C=C[C@@H]2O)C/C=C\C[C@H](c2ccc(F)cc2)O1
TGT: PC-3
VALUE_UNIT: µM
IC50: 35.8
--
COMPOUND_SMILES: COc1ccc(CO[C@H]2C=C[C@H]3C/C=C\C[C@H](c4ccc(F)cc4)OC(=O)C[C@@H]2O3)cc1
TGT: PC-3
VALUE_UNIT: µM
IC50: 2.23
--
COMPOUND_SMILES: CO[C@H]1C=C[C@H]2C/C=C\C[C@H](c3ccc(Br)cc3)OC(=O)C[C@@H]1O2
TGT: PC-3
VALUE_UNIT: µM
IC50: 15.8
--
COMPOUND_SMILES: CCO[C@H]1C=C[C@H]2C/C=C\CC[C@H](C)OC(=O)C[C@@H]1O2
TGT: PC-3
VALUE_UNIT: µM
IC50: 78

Kindly review the next molecule as well.
query: Returns the measured IC50 for the input molecule. Input: "COc1ccc(CO[C@H]2C=C[C@H]3C/C=C\C[C@H](c4ccc5ccccc5c4)OC(=O)C[C@@H]2O3)cc1"
result: 45.4
